tgt: T1, UNK ZnF1-3 (human, UniProt Q9C0B0 31-174)
T1 sequence: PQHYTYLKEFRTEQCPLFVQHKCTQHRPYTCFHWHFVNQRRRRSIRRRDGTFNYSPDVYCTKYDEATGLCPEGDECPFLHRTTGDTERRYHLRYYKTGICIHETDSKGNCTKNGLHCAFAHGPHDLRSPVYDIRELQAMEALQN
experimentSummary: nsRBNS (natural sequence RNA bind-n-seq); RBNS binding buffer (assumed for nsRBNS): 25 mM Tris pH 7.5, 150 mM KCl, 3 mM MgCl2, 0.01% Triton X-100, 500 ug/ml BSA, 20 U/ml SUPERase-In, 4 C; UNK is unkempt and MSI1 is Musashi-1; names of the RNAs are library labels; protein concentration not given here; high values mean tight binding
In all, about 24,000 sequences were measured (“enrichment r”: median about 0.99, highest 2% from about 3.7 on). This is one part of a sample in which the highest values are shown more often than they occur.
Entries and their binding signal
Field: numeric (enrichment R). Do not append units.

Observe how each entry below is paired with its result.
binder	binding signal [enrichment R]
chr10:33190432:33190433:-_ENSG00000150093_ENST00000302278|hu_mus|hu_hu_hu_mus_True|68_98 (ssRNA) RNA: GGGAGUUCUACAGUCCGACGAUCUACAUUUUCCAAACCUGCACAUGAAUAAAACCCUGGCCACAGAGCCCUAAAGCUACCCUACUGUGACUAAGAUGCUGCUGCUGUGAGCUUGGUGUUGCAAAAUCCGCCUGAGUAGGAUUCCAACAGAGGAUUGAGCAUCA	0.909
chr15:76911001:76911002:-_ENSMUSG00000033565_ENSMUST00000166610|mus_hu|motif|central (ssRNA) RNA: GGGAGUUCUACAGUCCGACGAUCAAGAGCAUGACAAAAUAAAAACACACAAAUUUACGUCUGAUGUUCACCUUGCCCACGGUUUUUUUUUCCUAUCUUAAAACAGUGCAAACAGGUAACUUAUGCUUUUAAAACACCACGACCCAACAGAGGAUUGAGCAUCA	1.59

Okay, next one:
Tell me the measured binding signal of chr17:56552419:56552420:-_ENSMUSG00000013236_ENSMUST00000086828|mus_mus|mus_mus_mus_hu_False|58_68 (ssRNA) RNA: GGGAGUUCUACAGUCCGACGAUCAAAAAAUACACUAUUUAAAAAAAAUGAAAUGUCACGGGAUACAAAAAAAUAUACACUAUUAAAAGAAAGCUGGAUUCUGGUCCCAGCCCAGUGUCCCCAGGCUGCAGAGCGGGGAGGAGCCAACAGAGGAUUGAGCAUCA , please.
11.3
